- Tested on: BT-474 ductal breast cancer cells
- experimental_protocol: CellTiter-Glo luminescent cell viability assay, BT-474 cells (same method)
- Type: cell-based
- condition_summary: Homo sapiens, Table 1
pIC50: −log10 of the molar value.
outcome_measure: pIC50

-- ask Entry under review: C#C[C@]1(O)CC[C@H]2[C@@H]3CCC4=CCCC[C@@H]4[C@H]3C(=C)C[C@@]21CC [desogestrel] . Reported pIC50?
-- reply ≤ 4.00

----------
- Tested on: ER-negative Ah receptor-positive MDA-MB-468 breast cancer cells
- experimental_protocol: CellTiter-Glo luminescent cell viability assay, MDA-MB-468 96-well drug screening plate
- Type: cell-based
- condition_summary: Homo sapiens; MDA-MB-468 cells, 72 hours, Table 1; read-out: IC50 value
outcome_measure: IC50 (µM)
The response must be a number in µM with no trailing unit.

-- ask Entry under review: C#C[C@]1(O)CC[C@H]2[C@@H]3CCC4=CCCC[C@@H]4[C@H]3C(=C)C[C@@]21CC . Reported IC50?
-- reply 12.5
